- System: Escherichia coli TOP10
- EXPERIMENT_SUMMARY: shrunken log2 fold change of peptide-encoding DNA abundance (4.5 h post-induction vs induction); higher = less antimicrobial activity (less host growth inhibition)
- TEST_PARAMETERS: time post-induction: 4.5 h; library: site-saturation at positions 5, 18, 19, 20
The sequences listed here are annotated with their shrunken log2 fold change.
# answer = number (no unit)

// below: answered sequences
RRIRGRPPRLPRPRPRPRSIPRP; 0.238
RRIRQRPPRLPRPRPRPTIPPRP; -0.205
RRIRLRPPRLPRPRPRPSSQPRP; -0.0758
RRIRMRPPRLPRPRPRPMRAPRP; 2.56

Would you kindly look at the next entry?
What value of shrunken log2 fold change has been recorded for this entry: RRIRSRPPRLPRPRPRPSVAPRP 0.575

----------
- System: Escherichia coli TOP10
- EXPERIMENT_SUMMARY: shrunken log2 fold change of peptide-encoding DNA abundance (4.5 h post-induction vs induction); higher = less antimicrobial activity (less host growth inhibition)
- TEST_PARAMETERS: time post-induction: 4.5 h; library: site-saturation at positions 5, 18, 19, 20
Respond with condition met for shrunken log2 fold change values of -0.1 and above, condition not met for values below.

Check the entry RRIRSRPPRLPRPRPRPSIIPRP : does shrunken log2 fold change equal or exceed -0.1? condition not met

What do we get for RRIRGRPPRLPRPRPRPTLIPRP ? condition met

What do we get for RRIRCRPPRLPRPRPRPPLLPRP ? condition met

What do we get for RRIRSRPPRLPRPRPRPIPYPRP ? condition not met

What do we get for RRIRIRPPRLPRPRPRPCPHPRP ? condition not met

What do we get for RRIRRRPPRLPRPRPRPIAYPRP ? condition met

What do we get for RRIRQRPPRLPRPRPRPRFAPRP ? condition met

What do we get for RRIRWRPPRLPRPRPRPCLRPRP ? condition met

What do we get for RRIRARPPRLPRPRPRPRMQPRP ? condition met

What do we get for RRIRKRPPRLPRPRPRPPYRPRP ? condition not met

What do we get for RRIRRRPPRLPRPRPRPSDLPRP ? condition met

----------
The sequences listed here are annotated with their shrunken log2 fold change.
- Test system: Escherichia coli TOP10
- EXPERIMENT_SUMMARY: shrunken log2 fold change of peptide-encoding DNA abundance (4.5 h post-induction vs induction); higher = less antimicrobial activity (less host growth inhibition)
- TEST_PARAMETERS: time post-induction: 4.5 h; library: site-saturation at positions 5, 18, 19, 20
# answer = number (no unit)

// below: answered sequences
RRIRWRPPRLPRPRPRPIKHPRP; -0.2
RRIRERPPRLPRPRPRPFQGPRP; 0.0891

Would you kindly look at the next entry?
Please provide the recorded shrunken log2 fold change for RRIRIRPPRLPRPRPRPRRKPRP , tested on Escherichia coli TOP10. 0.0881

----------
- Tested on: Escherichia coli TOP10
- EXPERIMENT_SUMMARY: shrunken log2 fold change of peptide-encoding DNA abundance (4.5 h post-induction vs induction); higher = less antimicrobial activity (less host growth inhibition)
- TEST_PARAMETERS: time post-induction: 4.5 h; library: site-saturation at positions 5, 18, 19, 20
Respond with Condition met for shrunken log2 fold change values of 0.2 and above, Condition not met for values below.

For orientation, consider the following solved cases.
RRIRVRPPRLPRPRPRPNPDPRP; Condition not met
RRIRVRPPRLPRPRPRPGFQPRP; Condition met
RRIRKRPPRLPRPRPRPSRMPRP; Condition met
RRIRKRPPRLPRPRPRPQPLPRP; Condition met
RRIRWRPPRLPRPRPRPRPSPRP; Condition met

Check the entry RRIRQRPPRLPRPRPRPCWPPRP : does shrunken log2 fold change equal or exceed 0.2? Condition not met

What do we get for RRIRNRPPRLPRPRPRPIPQPRP ? Condition not met

What do we get for RRIRYRPPRLPRPRPRPMVEPRP ? Condition not met

What do we get for RRIRLRPPRLPRPRPRPSGGPRP ? Condition not met

----------
The sequences listed here are annotated with their shrunken log2 fold change.
- Test system: Escherichia coli TOP10
- EXPERIMENT_SUMMARY: shrunken log2 fold change of peptide-encoding DNA abundance (4.5 h post-induction vs induction); higher = less antimicrobial activity (less host growth inhibition)
- TEST_PARAMETERS: time post-induction: 4.5 h; library: site-saturation at positions 5, 18, 19, 20

RRIRVRPPRLPRPRPRPTAKPRP; 0.0848
RRIRPRPPRLPRPRPRPAEKPRP; 0.0387
RRIRVRPPRLPRPRPRPDNDPRP; -0.232

What value of shrunken log2 fold change has been recorded for this entry: RRIRSRPPRLPRPRPRPCSVPRP 0.044

What do we get for RRIRRRPPRLPRPRPRPYVNPRP ? -0.0793

What do we get for RRIRDRPPRLPRPRPRPPWTPRP ? 0.238

What do we get for RRIRLRPPRLPRPRPRPIPTPRP ? -0.105

What do we get for RRIRLRPPRLPRPRPRPCELPRP ? -0.358

What do we get for RRIRTRPPRLPRPRPRPGECPRP ? -0.258

What do we get for RRIRQRPPRLPRPRPRPMKYPRP ? -0.498

What do we get for RRIRERPPRLPRPRPRPTIKPRP ? -0.178

----------
- Test system: Escherichia coli TOP10
- EXPERIMENT_SUMMARY: shrunken log2 fold change of peptide-encoding DNA abundance (4.5 h post-induction vs induction); higher = less antimicrobial activity (less host growth inhibition)
- TEST_PARAMETERS: time post-induction: 4.5 h; library: site-saturation at positions 5, 18, 19, 20
Respond with met for shrunken log2 fold change values of -0.03 and above, not met for values below.

RRIRDRPPRLPRPRPRPQMLPRP; met

We next turn to a different sequence, shown below.
Check the entry RRIRRRPPRLPRPRPRPKCKPRP : does shrunken log2 fold change equal or exceed -0.03? met

----------
- Test system: Escherichia coli TOP10
- EXPERIMENT_SUMMARY: shrunken log2 fold change of peptide-encoding DNA abundance (4.5 h post-induction vs induction); higher = less antimicrobial activity (less host growth inhibition)
- TEST_PARAMETERS: time post-induction: 4.5 h; library: site-saturation at positions 5, 18, 19, 20
Class (required): determined from shrunken log2 fold change; valid ranges are group 1 (below 0.007), group 2 (0.007 to below 0.09), group 3 (0.09 or more)

Into which category would you place RRIRKRPPRLPRPRPRPPWTPRP ? group 3

What do we get for RRIRNRPPRLPRPRPRPEELPRP ? group 3

What do we get for RRIRDRPPRLPRPRPRPKNHPRP ? group 1

What do we get for RRIRGRPPRLPRPRPRPEKHPRP ? group 3

What do we get for RRIRMRPPRLPRPRPRPMMSPRP ? group 2

What do we get for RRIRQRPPRLPRPRPRPNLCPRP ? group 1

What do we get for RRIRIRPPRLPRPRPRPQDEPRP ? group 2

What do we get for RRIRSRPPRLPRPRPRPYVCPRP ? group 1

----------
The sequences listed here are annotated with their shrunken log2 fold change.
- Tested on: Escherichia coli TOP10
- EXPERIMENT_SUMMARY: shrunken log2 fold change of peptide-encoding DNA abundance (4.5 h post-induction vs induction); higher = less antimicrobial activity (less host growth inhibition)
- TEST_PARAMETERS: time post-induction: 4.5 h; library: site-saturation at positions 5, 18, 19, 20
# answer = number (no unit)

RRIRWRPPRLPRPRPRPWDPPRP; -0.101
RRIRWRPPRLPRPRPRPASKPRP; 0.294
RRIRQRPPRLPRPRPRPHPHPRP; -0.136
RRIRKRPPRLPRPRPRPAPPPRP; 1.04
RRIRLRPPRLPRPRPRPCWTPRP; -0.252

What value of shrunken log2 fold change has been recorded for this entry: RRIRVRPPRLPRPRPRPVKQPRP -0.0475

What do we get for RRIRQRPPRLPRPRPRPTHNPRP ? 0.357

What do we get for RRIRLRPPRLPRPRPRPALPPRP ? 0.128

What do we get for RRIRPRPPRLPRPRPRPMWSPRP ? -0.276

What do we get for RRIRARPPRLPRPRPRPLWEPRP ? 0.745

What do we get for RRIRWRPPRLPRPRPRPIFYPRP ? -0.0652

----------
The sequences listed here are annotated with their shrunken log2 fold change.
- System: Escherichia coli TOP10;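 also: peptides expressed intracellularly from a pBAD plasmid library in pooled LB shake-flask culture, induced with 0.3% L-arabinose, DNA abundance read by NGS, three biological replicates, DESeq2 with apeglm shrinkage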
- EXPERIMENT_SUMMARY: shrunken log2 fold change of peptide-encoding DNA abundance (4.5 h post-induction vs induction); higher = less antimicrobial activity (less host growth inhibition)
- TEST_PARAMETERS: time post-induction: 4.5 h; library: site-saturation at positions 5, 18, 19, 20
# answer = number (no unit)

// below: answered sequences
RRIRGRPPRLPRPRPRPFAMPRP; 0.68
RRIRTRPPRLPRPRPRPPSKPRP; -0.326

What value of shrunken log2 fold change has been recorded for this entry: RRIRTRPPRLPRPRPRPLLMPRP -0.278

What do we get for RRIRSRPPRLPRPRPRPDKCPRP ? -0.173

What do we get for RRIRYRPPRLPRPRPRPRDGPRP ? -0.0431

What do we get for RRIRCRPPRLPRPRPRPHNTPRP ? -0.246

What do we get for RRIRWRPPRLPRPRPRPQNVPRP ? -0.0645

What do we get for RRIRIRPPRLPRPRPRPDCGPRP ? 0.0585

What do we get for RRIRWRPPRLPRPRPRPRVPPRP ? 0.444

Where do the numbers come from? From the supplement of paper PMC9112550.
